Catalogue of variants with associated protein stability index
B1: RTP4 (parent)
chain: AFGWFRCSSCQRSWASAQVQILCH

# Variants of: B1
# assay explanation: protein stability index of a GFP-peptide fusion (GPS, HEK-293T) (PSI 1-6); higher = more stable;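 note: lentivirally expressed fusions sorted by FACS into six bins by GFP to DsRed ratio, PSI derived from sequencing read proportions per bin multiplied by bin number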
# assay context: c terminus: a fixed tail appended
Answer field: number only, no words.

Reference set (6 entries):
S13H 2.36
R6C 2.07
W4H 2.49
S9M 3.56
S9P 2.5
R12S 2

Enquiry: So what does the record say about protein stability index for `A1W` ?
Return: 2.44

Enquiry: Same lookup for `L22C` , please.
Return: 1.4

Enquiry: Same lookup for `S9H` , please.
Return: 3.52

Enquiry: Next record, please: `V19H`
Return: 1.59
